Could you please report measured T1/2 for the items listed next?
tgt: Cholinesterase (Homo sapiens, UniProt P06276)
Sequence (P06276 whole entry): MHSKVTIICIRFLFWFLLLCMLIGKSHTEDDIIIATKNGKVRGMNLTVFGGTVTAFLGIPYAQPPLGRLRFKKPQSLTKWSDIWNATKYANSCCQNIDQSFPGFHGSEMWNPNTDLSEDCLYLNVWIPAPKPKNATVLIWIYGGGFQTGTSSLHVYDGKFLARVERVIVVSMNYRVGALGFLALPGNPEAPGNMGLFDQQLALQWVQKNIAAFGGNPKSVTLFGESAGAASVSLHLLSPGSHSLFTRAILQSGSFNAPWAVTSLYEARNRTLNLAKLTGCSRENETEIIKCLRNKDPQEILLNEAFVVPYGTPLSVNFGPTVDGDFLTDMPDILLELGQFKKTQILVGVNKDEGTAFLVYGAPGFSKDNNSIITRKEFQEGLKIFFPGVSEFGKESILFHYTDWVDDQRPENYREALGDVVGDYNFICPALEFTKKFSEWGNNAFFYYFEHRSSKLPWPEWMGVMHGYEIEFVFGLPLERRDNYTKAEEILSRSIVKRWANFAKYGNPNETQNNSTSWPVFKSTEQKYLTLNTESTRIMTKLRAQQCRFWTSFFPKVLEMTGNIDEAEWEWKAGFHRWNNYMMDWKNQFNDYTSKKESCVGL
test-summary: Binding affinity to human BChE assessed as half life incubated for 1 hr by Ellman's method
Please give a number only; it is taken to be in h.

// compound `C#CCCCN(C)C(=O)Oc1cccc2c(CN(C)CCC3CCCCCC3)c[nH]c12` , assay Cholinesterase (Homo sapiens, UniProt P06276), T1/2 value: 46.5

// compound `CN(CCC1CCCCCC1)Cc1c[nH]c2c(OC(=O)N(C)Cc3ccccc3)cccc12` , assay Cholinesterase (Homo sapiens, UniProt P06276), T1/2 value: 92.2

// compound `C#CCN(CC#C)C(=O)Oc1cccc2c(CN(C)CCC3CCCCCC3)c[nH]c12` , assay Cholinesterase (Homo sapiens, UniProt P06276), T1/2 value: 11.2

// compound `CN(CCC1CCCCCC1)Cc1c[nH]c2c(OC(=O)N(C)C)cccc12` , assay Cholinesterase (Homo sapiens, UniProt P06276), T1/2 value: 13

// compound `CCN(CC)C(=O)Oc1cccc2c(CN(C)CCC3CCCCCC3)c[nH]c12` , assay Cholinesterase (Homo sapiens, UniProt P06276), T1/2 value: 318

// compound `C#CCN(C)C(=O)Oc1cccc2c(CN(C)CCC3CCCCCC3)c[nH]c12` , assay Cholinesterase (Homo sapiens, UniProt P06276), T1/2 value: 49

###

tgt: Acetylcholinesterase (Homo sapiens, UniProt P22303)
Sequence (P22303 whole entry): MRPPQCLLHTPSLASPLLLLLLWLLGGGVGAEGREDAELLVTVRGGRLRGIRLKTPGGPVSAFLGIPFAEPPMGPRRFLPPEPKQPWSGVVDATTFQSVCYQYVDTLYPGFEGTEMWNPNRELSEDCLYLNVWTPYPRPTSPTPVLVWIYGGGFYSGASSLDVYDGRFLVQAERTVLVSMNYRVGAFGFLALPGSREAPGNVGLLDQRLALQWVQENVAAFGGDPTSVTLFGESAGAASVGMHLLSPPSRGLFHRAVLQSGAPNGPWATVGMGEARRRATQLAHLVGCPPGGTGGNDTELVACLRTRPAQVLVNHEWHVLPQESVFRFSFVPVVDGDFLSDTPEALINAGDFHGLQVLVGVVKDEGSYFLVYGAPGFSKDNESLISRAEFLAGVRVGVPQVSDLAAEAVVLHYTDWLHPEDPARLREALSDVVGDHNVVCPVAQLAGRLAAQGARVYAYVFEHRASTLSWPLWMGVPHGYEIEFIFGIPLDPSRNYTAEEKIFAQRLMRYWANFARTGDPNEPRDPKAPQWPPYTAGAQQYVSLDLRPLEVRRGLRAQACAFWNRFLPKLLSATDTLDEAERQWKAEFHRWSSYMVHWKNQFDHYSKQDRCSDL
test-summary: Inhibition of human AChE using acetylthiocholine iodide as substrate preincubated for 5 mins followed by substrate addition and measured for 2 mins by spectrophotometry based Ellman's method
Could you please report measured pIC50 for the items listed next?
Scale for pIC50: -log10 of concentration given in mol/L; no unit attached.

// compound `C#CCN(CC#C)C(=O)Oc1cccc2c(CN(C)CCC3CCCCCC3)c[nH]c12` , assay Acetylcholinesterase (Homo sapiens, UniProt P22303), pIC50 value: 6.33

// compound `C#CCCCN(C)C(=O)Oc1cccc2c(CN(C)CCC3CCCCCC3)c[nH]c12` , assay Acetylcholinesterase (Homo sapiens, UniProt P22303), pIC50 value: 5.97

// compound `C#CCN(C)C(=O)Oc1ccc2c(CN(C)CCC3CCCCCC3)c[nH]c2c1` , assay Acetylcholinesterase (Homo sapiens, UniProt P22303), pIC50 value: 5.84

// compound `C#CCN(CC)C(=O)Oc1cccc2c(CN(C)CCC3CCCCCC3)c[nH]c12` , assay Acetylcholinesterase (Homo sapiens, UniProt P22303), pIC50 value: 5.12

// compound `CN(CCC1CCCCCC1)Cc1c[nH]c2c(OC(=O)N(C)C(C)(C)C)cccc12` , assay Acetylcholinesterase (Homo sapiens, UniProt P22303), pIC50 value: 5.00

// compound `CC(C)N(C)C(=O)Oc1cccc2c(CN(C)CCC3CCCCCC3)c[nH]c12` , assay Acetylcholinesterase (Homo sapiens, UniProt P22303), pIC50 value: 5.55

// compound `CCN(C)C(=O)Oc1cccc2c(CN(C)CCC3CCCCCC3)c[nH]c12` , assay Acetylcholinesterase (Homo sapiens, UniProt P22303), pIC50 value: 5.17

// compound `CC(C)N(C(=O)Oc1cccc2c(CN(C)CCC3CCCCCC3)c[nH]c12)C(C)C` , assay Acetylcholinesterase (Homo sapiens, UniProt P22303), pIC50 value: 5.33

// compound `CC(C)N(C(=O)Oc1ccc2c(CN(C)CCC3CCCCCC3)c[nH]c2c1)C(C)C` , assay Acetylcholinesterase (Homo sapiens, UniProt P22303), pIC50 value: 6.47

// compound `CN(CCC1CCCCCC1)Cc1c[nH]c2cc(OC(=O)N(C)C)ccc12` , assay Acetylcholinesterase (Homo sapiens, UniProt P22303), pIC50 value: 5.17

// compound `CN(CCC1CCCCCC1)Cc1c[nH]c2c(OC(=O)N3CCCCC3)cccc12` , assay Acetylcholinesterase (Homo sapiens, UniProt P22303), pIC50 value: 6.28

// compound `C#CCN(C(=O)Oc1cccc2c(CN(C)CCC3CCCCCC3)c[nH]c12)C(C)C` , assay Acetylcholinesterase (Homo sapiens, UniProt P22303), pIC50 value: 5.27

// compound `CON(C)C(=O)Oc1cccc2c(CN(C)CCC3CCCCCC3)c[nH]c12` , assay Acetylcholinesterase (Homo sapiens, UniProt P22303), pIC50 value: 5.96

// compound `CN(CCC1CCCCCC1)Cc1c[nH]c2c(OC(=O)N3CCOCC3)cccc12` , assay Acetylcholinesterase (Homo sapiens, UniProt P22303), pIC50 value: 5.45

// compound `CN(CCC1CCCCCC1)Cc1c[nH]c2c(OC(=O)N(C)Cc3ccccc3)cccc12` , assay Acetylcholinesterase (Homo sapiens, UniProt P22303), pIC50 value: 6.27

// compound `CN(CCC1CCCCCC1)Cc1c[nH]c2c(O)cccc12` , assay Acetylcholinesterase (Homo sapiens, UniProt P22303), pIC50 value: 4.94

// compound `CN(CCC1CCCCCC1)Cc1c[nH]c2c(OC(=O)N(C)C)cccc12` , assay Acetylcholinesterase (Homo sapiens, UniProt P22303), pIC50 value: 6.25

// compound `CCN(CC)C(=O)Oc1cccc2c(CN(C)CCC3CCCCCC3)c[nH]c12` , assay Acetylcholinesterase (Homo sapiens, UniProt P22303), pIC50 value: 5.25

// compound `C#CCCCCCCCCCN(C)C(=O)Oc1cccc2c(CN(C)CCC3CCCCCC3)c[nH]c12` , assay Acetylcholinesterase (Homo sapiens, UniProt P22303), pIC50 value: 6.91

// compound `C#CCN(C)C(=O)Oc1cccc2c(CN(C)CCC3CCCCCC3)c[nH]c12` , assay Acetylcholinesterase (Homo sapiens, UniProt P22303), pIC50 value: 6.47

// compound `CN(CCC1CCCCCC1)Cc1c[nH]c2c(OC(=O)N(C)N(C)C)cccc12` , assay Acetylcholinesterase (Homo sapiens, UniProt P22303), pIC50 value: 5.25
